# key: entry, value: CLH
- ASSAY EXPLANATION: Intrinsic clearance in human liver microsomes

{"columns": ["COMPOUND", "VALUE UNIT", "CLH"],
 "data": [
  ["COC(=O)[C@@H]1CC(=O)c2ccccc2NC(=O)C2c3ccccc3C(=O)N21 (stereo partly specified)", "µL/min/mg", 55.5],
  ["COc1cc2c(cc1OC)C1C(=O)Nc3ccccc3C(=O)CCN1C2=O (stereo unspecified)", "µL/min/mg", 20.7],
  ["O=C1CCN2C(=O)c3ccccc3C2C(=O)Nc2ccc(Cl)cc21 (stereo unspecified)", "µL/min/mg", 101],
  ["O=C1CCN2C(=O)[C@H]3CCCC[C@H]3C2C(=O)Nc2ccccc21 (stereo partly specified)", "µL/min/mg", 22.3],
  ["CC12C(=O)Nc3ccccc3C(=O)CCN1C(=O)c1ccccc12 (stereo unspecified)", "µL/min/mg", 34],
  ["O=C1Nc2ccccc2C2(O)CCN3C12c1ccccc1S3(=O)=O (stereo unspecified)", "µL/min/mg", 4.6],
  ["O=C1Nc2ccccc2CCCN2C(=O)c3ccccc3C12 (stereo unspecified)", "µL/min/mg", 35.7],
  ["CN1C(=O)C2c3ccccc3C(=O)N2CCC(=O)c2ccccc21 (stereo unspecified)", "µL/min/mg", 71],
  ["O=C1CCN2C(=O)c3ccccc3C2C(=O)Nc2ccc(F)cc21 (stereo unspecified)", "µL/min/mg", 45.4],
  ["O=C1CCN2C(=O)c3ccccc3C2C(=O)Nc2ccccc21 (stereo unspecified)", "µL/min/mg", 27],
  ["O=c1c2c([nH]c3ccccc13)C1c3ccccc3S(=O)(=O)N1C2 (stereo unspecified)", "µL/min/mg", 11]
]}
